The values you see were collected from patent US4920128A.

Test system: phenylephrine-contracted aortic ring preparation
Assay: vasodilator activity in phenylephrine-contracted aortic ring preparation from the spontaneously hypertensive rat (SHR)
Details: 50% of maximal relaxation induced by papaverine (200 μM), contracted with 1 μM phenylephrine
measured_endpoint: EC50 (µM)

# molecule, measured_endpoint, units_text, observed
data = [
    ("COc1ccc2nc3c(cc2c1)c(N)nn3CCCN(C)C", "EC50", "µM", 91),
    ("Nc1n[nH]c2nc3ccc(O)cc3cc12 [Example 14, 3-Amino-1H-pyrazolo[3,4-b]quinolin-6-ol]", "EC50", "µM", 25),
    ("COc1ccc2nc3c(cc2c1)c(N)nn3CC(=O)N(C)C", "EC50", "µM", 116),
]

a: CCOC(=O)Cn1nc(N)c2cc3ccc(OC)cc3nc21
b: COc1ccc2nc3c(cc2c1)c(C(N)=O)nn3C
Problem: Parameter check: reported EC50 is higher for which label, a or b ? Pick one and reply with its label.
Solution: a
(a: 71 µM, b: 9 µM)

---

Tested on: phenylephrine-contracted aortic ring preparation
Experiment: vasodilator activity in phenylephrine-contracted aortic ring preparation from the spontaneously hypertensive rat (SHR)
Details: 50% of maximal relaxation induced by papaverine (200 μM), contracted with 1 μM phenylephrine
measured_endpoint: EC50 (µM)

# molecule, EC50 [µM]
records = [
    ("CCN(CC)CCn1nc(N)c2cc3ccc(OC)cc3nc21 [Example 22]", 22),
]

1: Cn1nc(N)c2cc3ccc(O)cc3nc21 [Example 12]
2: COc1ccc2cc3c(N)nn(CCN(C)C)c3nc2c1 [Example 18]
Problem: Between the two listed entries 1 and 2 , which has its EC50 at the higher number? // output: label of the selected item
Solution: 1

---

System: phenylephrine-contracted aortic ring preparation
Test: vasodilator activity in phenylephrine-contracted aortic ring preparation from the spontaneously hypertensive rat (SHR)
Details: 50% of maximal relaxation induced by papaverine (200 μM), contracted with 1 μM phenylephrine
Description: Aortic ring preparations from SHR are suspended in buffered physiological saline and induced to contract by addition of 1 μM phenylephrine, a selective α1 -adrenergic agonist. […] Percent relaxation by the test compound is expressed as a percent of maximal relaxation induced by papaverine. […] By this procedure, EC50 values for certain compounds of the invention were determined with the following results: […]
measured_endpoint: EC50 (µM)

See these solved cases before continuing.
# compound, units_text, EC50
records = [
    ("CCN(CC)CCn1nc(N)c2cc3cc(OC)ccc3nc21", "µM", 40),
    ("COc1ccc2nc3c(cc2c1)c(N)nn3CCN(C)C", "µM", 38),
    ("COc1ccc2cc3c(N)n[nH]c3nc2c1", "µM", 21),
    ("COc1ccc2nc3[nH]nc(N)c3cc2c1", "µM", 31),
    ("Nc1n[nH]c2nc3ccccc3cc12 [2(d), 1H-Pyrazolo[3,4-b]quinolin-3-amine]", "µM", 26),
]

a: COc1cc2cc3c(N)n[nH]c3nc2cc1OC
b: CCNC(=O)Cn1nc(N)c2cc3ccc(OC)cc3nc21
Problem: Lab notebook, comparison: a versus b , higher EC50 goes to which? Let me know the label of the one you choose.
Solution: b
(b: 70 µM, a: 18 µM)

---

System: phenylephrine-contracted aortic ring preparation
Test: vasodilator activity in phenylephrine-contracted aortic ring preparation from the spontaneously hypertensive rat (SHR)
Settings: 50% of maximal relaxation induced by papaverine (200 μM), contracted with 1 μM phenylephrine
measured_endpoint: EC50 (µM)

# compound, units_text, EC50
data = [
    ("CCN(CC)CCn1nc(N)c2cc3ccc(O)cc3nc21 [Example 23]", "µM", 33),
]

a: COc1ccc2cc3c(N)nn(C)c3nc2c1 [Example 7]
b: Nc1n[nH]c2nc3cc(O)ccc3cc12 [Example 13, 3-Amino-1H-pyrazolo[3,4-b]quinolin-7-ol]
Problem: // which entry reports the smaller EC50, a or b ? Pick one and reply with its label.
Solution: a
(a: 43 µM, b: 87 µM)
